- Experiment Description: Blood levels in mice after intramuscular administration
- Type: in vivo
- Condition Context: mouse, im, 20 mg/kg, read-out: t1/2 (half-life)
Assay Metric: half-life (min)

- C[C@@H](O)[C@H]1C(=O)N2C(C(=O)[O-])=C(SCCSc3cccc[n+]3C)C[C@H]12: 8

###

- Experiment Description: Blood levels in mice after intramuscular administration
- Assay type: in vivo
- Condition Context: mouse, im, 20 mg/kg, 20 min after administration, read-out: Blood Level
Assay Metric: concentration at 20 min

- C[C@@H](O)[C@H]1C(=O)N2C(C(=O)[O-])=C(SCCSc3cccc[n+]3C)C[C@H]12: 8000 ng/mL
